Data provenance: ChEMBL document CHEMBL5230137

# Test system: K562
# assay-info: Anticancer activity against human K562 cells assessed as reduction in cell viability
# Format: functional, cell-based
measurement-label: pIC50
The quantity pIC50 is defined as the negative base-10 logarithm of the molar concentration.

Fill in the blank: the reported pIC50 of O=c1c2cc(Br)ccc2nc(Cc2ccccc2Nc2c(Cl)cccc2Cl)n1Cc1nnc(-c2ccc(Cl)cc2)o1 is ____.
5.82

So what's the measured pIC50 for this one? O=c1c2ccccc2nc(Cc2ccccc2Nc2c(Cl)cccc2Cl)n1Cc1nnc(-c2ccc(Cl)cc2)o1
6.00

* * *

# Tested on: Staphylococcus aureus
# assay-info: Bactericidal activity against Staphylococcus aureus
# Assay type: functional
measurement-label: MBC (µg/mL)
Supply the numeric figure in µg/mL, leaving out any unit text.

Given the entry CC1(C)S[C@@H]2[C@H](NC(=O)[C@H](N)c3ccccc3)C(=O)N2[C@H]1C(=O)O , report its measured MBC.
250

Could you tell me which MBC is on file for O=c1c2cc(Br)ccc2nc(Cc2ccccc2Nc2c(Cl)cccc2Cl)n1-c1nnc(-c2ccccc2Cl)o1 ?
50

Field request: MBC | item: O=c1c2cc(I)ccc2nc(Cc2ccccc2Nc2c(Cl)cccc2Cl)n1-c1ccc(-c2nnc(-c3ccc(Cl)cc3)o2)cc1
50

I have this compound here, O=c1c2cc(Br)ccc2nc(Cc2ccccc2Nc2c(Cl)cccc2Cl)n1Cc1nnc(-c2ccc(Cl)cc2)o1 , and I need its recorded MBC.
50

Which MBC value belongs to O=c1c2ccccc2nc(Cc2ccccc2Nc2c(Cl)cccc2Cl)n1-c1ccc(-c2nnc(-c3ccccc3Cl)o2)cc1 ?
50

Would you kindly share the measured MBC for O=c1c2cc(I)ccc2nc(Cc2ccccc2Nc2c(Cl)cccc2Cl)n1-c1ccc(-c2nnc(-c3ccccc3Cl)o2)cc1 ?
50

* * *

# target-of-assay: Thermolysin (Bacillus thermoproteolyticus, UniProt P00800)
# Sequence (P00800 whole entry): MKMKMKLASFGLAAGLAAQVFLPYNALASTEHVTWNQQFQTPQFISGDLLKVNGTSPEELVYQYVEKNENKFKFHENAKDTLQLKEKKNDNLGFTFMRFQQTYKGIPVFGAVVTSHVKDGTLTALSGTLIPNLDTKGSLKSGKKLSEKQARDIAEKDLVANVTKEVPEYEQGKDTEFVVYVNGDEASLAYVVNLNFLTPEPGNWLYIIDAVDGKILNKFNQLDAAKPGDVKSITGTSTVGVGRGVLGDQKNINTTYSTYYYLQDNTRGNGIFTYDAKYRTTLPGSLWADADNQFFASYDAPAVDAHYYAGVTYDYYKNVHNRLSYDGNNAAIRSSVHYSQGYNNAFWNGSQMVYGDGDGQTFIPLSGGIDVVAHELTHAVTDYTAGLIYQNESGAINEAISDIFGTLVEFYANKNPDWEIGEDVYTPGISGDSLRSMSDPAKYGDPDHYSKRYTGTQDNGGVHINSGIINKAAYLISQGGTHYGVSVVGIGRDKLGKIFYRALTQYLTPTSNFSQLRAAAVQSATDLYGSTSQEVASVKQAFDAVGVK
# assay-info: Binding affinity to Bacillus thermoproteolyticus Thermolysin assessed as inhibition constant by Cheng-Prusoff equation analysis
measurement-label: pKi
Recall that pKi is obtained by taking minus log10 of the concentration measured in molar.

Lab note: need pKi with Thermolysin (Bacillus thermoproteolyticus, UniProt P00800) for entry O=c1c2ccccc2nc(-c2ccccc2)n1-c1nccs1 , please look it up.
4.23
